# Tested on: M14 melanoma
# testDetails: NCI tumour cell line growth inhibition, 48 h
Entries annotated with measured TGI

Observe how each entry below is paired with its result.
CNC(=O)c1cc(-c2ccc(F)cc2)cc(-c2ccc(S(=O)(=O)N3CCCC3)cc2)c1N ... > 25 µM
CCc1n[nH]c(=O)[nH]1 ... > 100 µM
CC(=O)c1c(O)cc(O)c(-c2c(C)cc(O)c3c2C(=O)c2cccc(O)c2C3=O)c1O ... 51.4 µM
C[C@H]1CC[C@@H]2[C@@H](C)[C@H]3[C@H](C[C@H]4[C@@H]5CC=C6C[C@@H](O)CC[C@]6(C)[C@H]5CC[C@]34C)N2C1 ... > 100 µM
CC(CC(=O)Nc1ccc(NC(=O)CC(C)N=NC(N)=O)cc1)N=NC(N)=O (stereo unspecified) ... > 100 µM
CC/C(C)=C1\CCC(CN(C)C)C1=O (stereo unspecified) ... 33.6 µM
C=C1C(=O)OC2(C)CCC1CC1OC1(C)CCC=C(C)CCC2O (stereo unspecified) ... > 100 µM
COc1ccc(C2C3=C(COC3=O)N(CCO)c3cc4c(cc32)CCC4)cc1 (stereo unspecified) ... 21.1 µM
CC1(C2CCC3(C)C(C2)C3Sc2ccccc2)OCCO1 (stereo unspecified) ... > 100 µM
C=C1CC(O)C2C(=C)C(=O)OC2C2C(C)C(=O)CC12 (stereo unspecified) ... 25.6 µM

Incoming: Determine its reported TGI: O=c1onc(Nc2ccccc2)n1-c1ccccc1
Outgoing: > 100 µM
